target: AEA-DA lipid probe targets in Neuro2a cells (Mus musculus); conditions: competitor 25 μM
Sequence (P06795 whole entry): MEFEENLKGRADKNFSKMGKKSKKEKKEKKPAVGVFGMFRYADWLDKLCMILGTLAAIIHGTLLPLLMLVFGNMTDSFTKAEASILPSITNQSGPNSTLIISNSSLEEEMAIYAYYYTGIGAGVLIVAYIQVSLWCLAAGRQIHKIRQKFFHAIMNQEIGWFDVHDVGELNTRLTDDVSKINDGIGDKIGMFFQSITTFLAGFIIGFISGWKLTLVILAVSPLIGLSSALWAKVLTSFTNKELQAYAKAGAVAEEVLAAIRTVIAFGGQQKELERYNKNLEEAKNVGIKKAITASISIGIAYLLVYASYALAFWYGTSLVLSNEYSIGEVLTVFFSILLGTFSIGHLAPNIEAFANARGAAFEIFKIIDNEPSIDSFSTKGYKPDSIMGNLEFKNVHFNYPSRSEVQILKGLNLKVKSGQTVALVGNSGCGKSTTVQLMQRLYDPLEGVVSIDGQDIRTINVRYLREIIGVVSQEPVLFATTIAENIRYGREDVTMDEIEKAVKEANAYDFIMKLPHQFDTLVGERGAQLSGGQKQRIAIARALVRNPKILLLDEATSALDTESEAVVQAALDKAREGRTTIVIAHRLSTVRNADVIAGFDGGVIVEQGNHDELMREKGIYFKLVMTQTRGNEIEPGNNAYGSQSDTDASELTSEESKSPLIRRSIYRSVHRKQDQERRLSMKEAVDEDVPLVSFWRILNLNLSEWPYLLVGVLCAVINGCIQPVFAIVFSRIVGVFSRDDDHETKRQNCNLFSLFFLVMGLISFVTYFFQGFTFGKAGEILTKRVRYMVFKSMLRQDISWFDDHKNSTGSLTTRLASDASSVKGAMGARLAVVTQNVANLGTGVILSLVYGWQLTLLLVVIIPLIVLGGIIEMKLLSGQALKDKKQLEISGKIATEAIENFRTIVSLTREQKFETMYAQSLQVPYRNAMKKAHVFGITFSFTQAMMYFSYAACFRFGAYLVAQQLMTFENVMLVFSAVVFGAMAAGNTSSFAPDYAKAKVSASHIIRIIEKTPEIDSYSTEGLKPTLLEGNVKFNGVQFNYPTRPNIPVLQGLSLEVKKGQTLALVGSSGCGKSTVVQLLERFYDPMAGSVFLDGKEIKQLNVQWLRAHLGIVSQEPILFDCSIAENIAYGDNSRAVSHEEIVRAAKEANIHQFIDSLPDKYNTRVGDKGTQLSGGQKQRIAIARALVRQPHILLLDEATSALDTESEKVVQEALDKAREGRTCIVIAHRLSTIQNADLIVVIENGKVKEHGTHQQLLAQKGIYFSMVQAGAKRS
Observation Type: SILAC ratio, Abcb1b
Reply with just the number.

Some entries whose results are on file:
CN1CCN(C(=O)c2c(-c3ccccc3)c3cc([N+](=O)[O-])ccc3n2C)CC1 | 5.7
C=CCN(C)CCCCCCOc1ccc(C(=O)c2ccc(Br)cc2)c(F)c1 [Ro 48-8071, reference compound] | 1.7
O=C(/C=C/c1cccnc1)NCCCCC1CCN(C(=O)c2ccccc2)CC1 [FK-866, reference compound] | 5.4

# input for lookup
Task item: Given the compound "CN1CCN(C(=O)c2[nH]c3ccc([N+](=O)[O-])cc3c2-c2ccccc2)CC1" , what is its reported SILAC ratio, Abcb1b?
Reply: 4.0
